Tested on: OVCAR-4 ovarian
Assay: NCI-60 one-dose screen, 48 h
Details: 10 µM
This is part of a sample that, as a whole, favours compounds with a hit. Of some 83,000 tested, about 20% had one in any assay. The source made the active and inactive calls. Rule for the calls: active = growth percent below 10; inactive = the rest.
Returns: one label drawn from active, inactive

Worked cases, answers included:
Compound	Assigned Class
NC(N)=N/N=C(\c1ccccc1)C(O)c1ccccc1 (stereo unspecified)	inactive
CN(C)CCCOc1ccc(OCCCN(C)C)c2c1C(=O)c1ccccc1C2=O	active
COc1ccc(CCN2CCC(Nc3nc4ccccc4n3Cc3ccc(F)cc3)CC2)cc1	inactive
C=CCNCCN1C(=O)c2ccc3c4c(ccc(c24)C1=O)C(=O)N(CCNCC=C)C3=O	active

So what was the verdict on COc1ccc(N(C)c2ncnc3occ(C)c23)cc1 in this test? inactive

Try COc1ccc2nc3cc(Cl)ccc3c(N)c2c1 next. active
